- Measurement target: T1, 4H40-bN
- T1 chain: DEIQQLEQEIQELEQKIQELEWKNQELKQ
- Assay procedure: two-hybrid library CCNG1;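 further: natural log of median RNA to DNA barcode read ratio; higher means stronger binding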
Observation type: interaction score

Binder	Measured result
DKIQQLKQKIQELKQKIQELEWENQELEQ [4H2915-bN]	1.52
DKIQQLKQENQELEQENQELKWKIQELEQ [4H2717-bN]	-1.61
DEIQQLEQEIQELKQKNQELKWEIQELEQ [4H121-bN]	-0.563
DKIQQLEQENQELEQKIQELKWKNQELEQ [4H2223-bN]	-0.775
DEIQQLEQKIQELKQENQELKWENQELKQ [4H348-bN]	-1
DEIQQLEQKIQELEQKNQELKWKNQELEQ [4H319-bN]	0.382
DKIQQLEQEIQELKQENQELEWKIQELKQ [4H2134-bN]	-0.166
DKIQQLKQKIQELEQENQELEWKNQELEQ [4H2839-bN]	-0.765
DKIQQLEQKNQELEQKIQELKWEIQELEQ [4H2473-bN]	-0.598
DKIQQLEQEIQELKQENQELKWKNQELEQ [4H2143-bN]	0.442
DKIQQLKQENQELEQEIQELEWENQELKQ [4H2692-bN]	-0.333
DEIQQLEQENQELEQKNQELEWKIQELKQ [4H182-bN]	0.0984
DKIQQLKQKNQELKQKNQELEWEIQELEQ [4H3057-bN]	-1.17
DKNQQLEQENQELKQEIQELKWKIQELEQ [4H3277-bN]	0.44
DEIQQLEQEIQELEQKIQELEWKNQELKQ [4H40-bN]	0.212
DKIQQLEQKNQELKQEIQELEWKNQELEQ [4H2503-bN]	-0.263
DKIQQLEQKNQELEQEIQELEWKIQELKQ [4H2438-bN]	-0.693
DKIQQLKQEIQELEQENQELKWENQELKQ [4H2588-bN]	-0.648
